Value source: PubChem BioAssay (EPA / NIEHS)

biological target: Bile acid receptor (Homo sapiens) (UniProt Q96RI1); experiment: ATG_IR1_CIS: Attagene CIS-FACTORIAL HepG2 Assay for human Nuclear Receptor Subfamily 1 Group H Member 4 (NR1H4), IR1 submotif (AID 2282946); details: IR1 reporter transcription, actives raise or lower the signal
Sequence (Q96RI1 whole entry, looked up): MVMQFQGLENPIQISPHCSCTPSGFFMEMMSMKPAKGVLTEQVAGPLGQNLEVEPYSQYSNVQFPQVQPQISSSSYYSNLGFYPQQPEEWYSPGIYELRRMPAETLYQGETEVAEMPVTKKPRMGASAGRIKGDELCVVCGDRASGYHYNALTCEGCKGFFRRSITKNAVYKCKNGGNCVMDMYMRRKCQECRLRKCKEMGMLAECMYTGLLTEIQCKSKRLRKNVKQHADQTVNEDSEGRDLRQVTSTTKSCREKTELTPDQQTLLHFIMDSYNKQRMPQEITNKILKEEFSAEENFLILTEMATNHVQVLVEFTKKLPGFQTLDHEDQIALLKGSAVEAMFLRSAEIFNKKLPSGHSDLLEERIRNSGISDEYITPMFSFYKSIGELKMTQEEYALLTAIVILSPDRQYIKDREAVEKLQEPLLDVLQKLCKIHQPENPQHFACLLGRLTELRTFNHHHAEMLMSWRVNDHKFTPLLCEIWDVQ
Active and inactive are the calls of the source. Rule for the calls: active = hit-call score of the fitted dose curve at least 0.9, where 1 is the maximum; inactive = score below 0.9.
Use one of these outcomes when replying: active, inactive

# count of solved cases: 6
molecule: COC(=O)C1=C(C)NC(C)=C(C(=O)OCC(C)C)C1c1ccccc1[N+](=O)[O-] (centres undefined)
assigned class: inactive
--
molecule: CCCCCC/C=C\CCCCCCCC(=O)O
assigned class: inactive
--
molecule: Cc1ccc(N/N=c2\c(=O)cc/c(=N/Nc3ccc(S(=O)(=O)O)cc3)c2=O)c(C)c1
assigned class: inactive
--
molecule: OCCc1ccncc1
assigned class: inactive
--
molecule: CCCCCCOC(=O)C(C)CC (centres undefined)
assigned class: inactive
--
molecule: CCCC(C)CCC(C)=O (centres undefined)
assigned class: inactive

q: Look up the recorded call for CC(C)=CC1CC(C)CCO1 (centres undefined) in this test.
a: inactive

q: Input CC(=O)Oc1ccc(C(C)=O)cc1
a: inactive

q: Input C1=CCCC1
a: inactive

q: Input COC(=O)c1ccccc1OC
a: inactive

###

target: Signal transducer and activator of transcription 3 (Homo sapiens) (UniProt P40763); experiment: ATG_STAT3_CIS: Attagene CIS-FACTORIAL HepG2 Assay for human Signal Transducer and Activator of Transcription 3 (STAT3) (AID 2282963); settings: HepG2, Attagene cis-factorial STAT3 reporter transcription; actives raise or lower the signal
Sequence (P40763 whole entry, looked up): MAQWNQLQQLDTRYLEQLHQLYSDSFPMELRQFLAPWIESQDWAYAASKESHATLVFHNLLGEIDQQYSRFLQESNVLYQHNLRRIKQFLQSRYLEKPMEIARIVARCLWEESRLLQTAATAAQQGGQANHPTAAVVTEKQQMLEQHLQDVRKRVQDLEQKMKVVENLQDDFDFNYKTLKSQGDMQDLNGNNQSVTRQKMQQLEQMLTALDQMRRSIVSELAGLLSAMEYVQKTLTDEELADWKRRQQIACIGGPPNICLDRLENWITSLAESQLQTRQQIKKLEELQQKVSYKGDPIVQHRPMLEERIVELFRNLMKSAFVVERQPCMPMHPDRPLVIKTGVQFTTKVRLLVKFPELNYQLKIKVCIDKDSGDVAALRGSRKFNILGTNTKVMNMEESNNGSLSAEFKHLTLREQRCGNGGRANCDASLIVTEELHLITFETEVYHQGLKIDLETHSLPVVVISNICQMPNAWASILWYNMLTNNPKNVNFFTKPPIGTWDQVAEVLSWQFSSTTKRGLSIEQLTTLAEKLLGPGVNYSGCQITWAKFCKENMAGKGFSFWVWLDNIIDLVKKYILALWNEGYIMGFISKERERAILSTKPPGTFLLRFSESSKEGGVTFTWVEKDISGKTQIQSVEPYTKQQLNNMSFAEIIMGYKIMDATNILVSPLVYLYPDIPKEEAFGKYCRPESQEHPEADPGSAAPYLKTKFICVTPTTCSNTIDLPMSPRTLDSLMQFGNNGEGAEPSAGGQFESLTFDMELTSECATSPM
Active and inactive are the calls of the source. How the source made its calls: active means hit-call score of the fitted dose curve at least 0.9, where 1 is the maximum; inactive means score below 0.9.
Use one of these outcomes when replying: class 1 for active, class 0 for inactive

# count of solved cases: 10
compound: C=CC(=O)OCC(Br)CBr (stereo unspecified)
assigned class: class 1
--
compound: CCCCC(CC)CCC(CC(C)C)OS(=O)(=O)O (stereo unspecified)
assigned class: class 0
--
compound: C=C(C)c1cccc(C(C)(C)N=C=O)c1
assigned class: class 0
--
compound: C/C=C\C/C=C/CCCCCCCCOC(C)=O
assigned class: class 0
--
compound: C=CCOc1c(Br)cc(Br)cc1Br
assigned class: class 0
--
compound: COc1cc(NC(=O)CC(C)=O)c(OC)cc1Cl
assigned class: class 0
--
compound: CCCCCCCC/C=C\CCCCCCCC(=O)OCCO
assigned class: class 0
--
compound: CC(C)(C)c1ccc(N)cc1
assigned class: class 0
--
compound: Nc1ccc(Oc2ccc(N)c(N)c2)cc1
assigned class: class 0
--
compound: C=CC(=O)OCCOC(=O)C=C
assigned class: class 0

Next item in the queue.
q: Look up the recorded call for O=S(=O)(O)CC(O)CCl (stereo unspecified) in this test.
a: class 0

###

Assay: ATG_ERE_CIS: Attagene CIS-FACTORIAL HepG2 Assay for Estrogen Response Element (ERE) (AID 2282940)
Settings: HepG2 ERE cis-reporter, Attagene RNA transcript; actives raise or lower the signal
Description: ATG_CIS is a cell-based, multiplexed-readout assay that uses HepG2, a human liver cell line, with measurements taken at 24 hours after chemical dosing in a 24-well plate.ATG_ERE_CIS is one of 52 assay component(s) measured or calculated from the ATG_CIS assay. […] This assay endpoint, ATG_ERE_CIS, was analyzed with bidirectional fitting relative to DMSO as the negative control and baseline of activity. […]
Active and inactive are the calls of the source. Rule for the calls: active = hit-call score of the fitted dose curve at least 0.9, where 1 is the maximum; inactive = score below 0.9.
Use one of these outcomes when replying: True for active, False for inactive

# count of solved cases: 2
compound: CC=C1CC2C=CC1C2 (stereo not drawn)
assigned class: False
//
compound: C=C[Si](OC(C)=O)(OC(C)=O)OC(C)=O
assigned class: False

q: Look up the recorded call for O=c1c2ccccc2oc2ccccc12 in this test.
a: True

q: Input FC(F)=C(F)OC(F)(F)C(F)(F)C(F)(F)F
a: False
